Field: stoichiometry N. Provide a value for each of the proteins that follow.
target: the molecule itself; assay: SEC; 500 uL of tagless purified protein on Superdex 75 10/30 in SEC buffer (150 mM KCl, 20 mM NaCl, 1 mM MgCl2, 5% glycerol, 50 mM HEPES pH 7.7), 0.5 mL/min; size from a calibration curve of standard proteins

# stoichiometry N lookup, item human TDP-43 NLS-RRM1-RRM2 (residues 85-266) (domain or fragment, UniProt Q13148 85-266, looked up, Tags removed with TEV protease; also called hTDP-43 NLS-RRM1-RRM2; source: E. coli BL21 KRX, purified (NiNTA, TEV digestion, SEC)) MDETDASSAVKVKRAVQKTSDLIVLGLPWKTTEQDLKEYFSTFGEVLMVQVKKDLKTGHSKGFGFVRFTEYETQVKVMSQRHMIDGRWCDCKLPNSKQSQDEPLRSRKVFVGRCTEDMTEDELREFFSQYGDVMDVFIPKPFRAFAFVTFADDQIAQSLCGEDLIIKGISVHISNAEPKHNS
2

# stoichiometry N lookup, item human TDP-43 NTD-ΔNLS-RRM1-RRM2 (residues 1-85 and 101-266) (domain or fragment, UniProt Q13148 1-85, looked up, Internal deletion of the NLS linker (residues 86-100); no replacing linker is mentioned; Tags removed with TEV protease; also called hTDP-43 NTD-ΔNLS-RRM1-RRM2; source: E. coli BL21 KRX, purified (NiNTA, TEV digestion, SEC)) MSEYIRVTEDENDEPIEIPSEDDGTVLLSTVTAQFPGACGLRYRNPVSQCMRGVRLVEGILHAPDAGWGNLVYVVNYPKDNKRKMQKTSDLIVLGLPWKTTEQDLKEYFSTFGEVLMVQVKKDLKTGHSKGFGFVRFTEYETQVKVMSQRHMIDGRWCDCKLPNSKQSQDEPLRSRKVFVGRCTEDMTEDELREFFSQYGDVMDVFIPKPFRAFAFVTFADDQIAQSLCGEDLIIKGISVHISNAEPKHNS
2

# stoichiometry N lookup, item human TDP-43 NTD (residues 1-85) (domain or fragment, UniProt Q13148 1-85, looked up, Tags removed with TEV protease; also called hTDP-43 NTD; source: E. coli BL21 KRX, purified (NiNTA, TEV digestion, SEC)) MSEYIRVTEDENDEPIEIPSEDDGTVLLSTVTAQFPGACGLRYRNPVSQCMRGVRLVEGILHAPDAGWGNLVYVVNYPKDNKRKM
2

Where these numbers come from: paper PMC11287377
